Molecular target: T1, biotin-labeled human CD137 fused to human IgG1 Fc fragment (human, biotin-labeled)
T1 construct: also called human CD137-Fc; biotin-human CD137-Fc
Assay: bead ELISA (chemiluminescence), IgG on biotin-human CD137-Fc on streptavidin beads; control competitor free human Fc 62.5 pmol

| binder | ELISA signal with Free Fc 62.5 pmol |
| --- | --- |
| dBBDu_H115/L035 (antibody, human IgG1, V domains shown, Full length IgG (human IgG1 CH1-Fc heavy chain, kappa light chain)) VH: QVQLVESGGGLVQPGRSLRLSCAASGFTFSNAWMHWVRQAPGKGLEWVAQIKDKANSYNTYYAPSVKGRFTISRDDSKNSIYLQMNSLKTEDTAVYYCRYVHYGSSYGFLFAGYGVDAWGQGTTVTVSS VL: DIVMTQSPLSLPVTPGEPASISCAASESLLHTNRNTYLHWYQQKPGQAPRLLIYKVSNRFSGVPDRFSGSGSGTDFTLKISRVEAEDVGVYYCAQGTQSPFTFGQGTKLEIK | 70600 |

Attribution: patent US20240270846A1
